All values here come from patent US20110262922.

Biological target: Insulin receptor (IR) (Homo sapiens, UniProt P06213-2;P06213-2 P06213-2:28-746,P06213-2:751-944)
Sequence (P06213 other isoform, or with tags, fused parts or gaps, chain 1 of 2): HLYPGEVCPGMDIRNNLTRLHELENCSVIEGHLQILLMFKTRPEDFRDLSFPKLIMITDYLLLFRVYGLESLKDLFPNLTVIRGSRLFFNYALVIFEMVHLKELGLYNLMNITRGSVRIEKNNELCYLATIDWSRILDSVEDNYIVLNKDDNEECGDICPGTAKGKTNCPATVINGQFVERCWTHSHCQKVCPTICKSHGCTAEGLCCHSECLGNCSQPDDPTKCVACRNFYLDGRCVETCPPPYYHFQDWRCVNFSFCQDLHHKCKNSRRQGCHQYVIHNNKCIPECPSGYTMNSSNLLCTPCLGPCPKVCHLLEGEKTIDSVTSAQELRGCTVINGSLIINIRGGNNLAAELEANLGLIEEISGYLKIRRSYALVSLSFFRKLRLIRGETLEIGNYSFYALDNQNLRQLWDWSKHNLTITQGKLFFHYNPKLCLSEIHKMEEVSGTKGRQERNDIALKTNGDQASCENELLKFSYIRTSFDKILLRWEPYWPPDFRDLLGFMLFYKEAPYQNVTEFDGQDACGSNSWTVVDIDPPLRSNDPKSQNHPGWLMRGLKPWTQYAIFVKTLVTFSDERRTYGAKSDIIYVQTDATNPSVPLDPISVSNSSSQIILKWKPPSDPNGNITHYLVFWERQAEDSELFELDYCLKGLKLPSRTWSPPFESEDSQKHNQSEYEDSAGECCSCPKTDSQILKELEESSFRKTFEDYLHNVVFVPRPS
Sequence (P06213 763-956, chain 2 of 2): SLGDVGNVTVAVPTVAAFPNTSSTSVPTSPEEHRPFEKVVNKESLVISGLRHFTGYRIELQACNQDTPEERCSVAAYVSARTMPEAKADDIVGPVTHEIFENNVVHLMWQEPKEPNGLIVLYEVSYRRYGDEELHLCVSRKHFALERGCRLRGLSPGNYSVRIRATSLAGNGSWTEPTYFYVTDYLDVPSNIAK
Assay: filter; +/-0.26; same buffer, 5 mM MgCl2, 37 C
Details: tags: His-tagged; R&D Systems Cat# 1544-IR; chain copies: 2; label: 5'-32P
quantityMeasured: Kd (nM)
Respond numerically; units are nM and should not be typed.

Requested field: Kd. Item: IR-11 (ssDNA) DNA: GAGTGACCGTCTGCCTGTAAGGTTTAAGCTTGGCCTAATGGTGCTATCAGGCTCAGCAGCCACACCACCAGCC
5.48
